The measured values listed here are drawn from patent US8354414B2.

Target entity: CDK5/GST-p25 (Homo sapiens, UniProt Q00535)
Construct: The final construct, encoding for full-length human CDK5; made in house; host or cells: Sf21 insect cells (baculovirus co-infection)
Sequence (Q00535 whole entry): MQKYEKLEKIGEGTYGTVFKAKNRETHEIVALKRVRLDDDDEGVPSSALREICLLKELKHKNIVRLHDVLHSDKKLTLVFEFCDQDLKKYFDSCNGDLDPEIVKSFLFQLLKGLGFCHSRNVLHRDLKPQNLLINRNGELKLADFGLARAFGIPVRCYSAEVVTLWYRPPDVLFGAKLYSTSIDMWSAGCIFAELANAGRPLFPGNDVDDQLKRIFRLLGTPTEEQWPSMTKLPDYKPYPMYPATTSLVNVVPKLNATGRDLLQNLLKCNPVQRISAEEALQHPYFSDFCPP
Sequence (Q15078 108-307 partner limits assumed): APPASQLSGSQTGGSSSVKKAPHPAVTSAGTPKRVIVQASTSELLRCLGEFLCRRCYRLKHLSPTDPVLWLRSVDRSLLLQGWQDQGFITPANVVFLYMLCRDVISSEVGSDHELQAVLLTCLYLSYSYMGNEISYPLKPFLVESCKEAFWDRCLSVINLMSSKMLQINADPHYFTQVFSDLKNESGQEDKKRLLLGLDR
Method: Inhibition of CDK5/GST-p25 kinase activity (ELISA with time-resolved fluorescence readout)
Assay type: biochemical
Assay context: class symbols
Experimental: Two recombinant baculoviral constructs were created, one encoding for human CDK5 and the other encoding for human p25 with an amino-terminal glutathione-S-transferase (GST) tag. […] Compounds were tested for their ability to inhibit the kinase activity of recombinant baculoviral CDK5/GST-p25 using an enzyme-linked immunosorbent assay (ELISA) with time-resolved fluorescence (TRF) readout. […] Inhibition data were analyzed using ActivityBase and IC50 curves were generated using XLFit 3.0.5.
Quick reference: IC50 of the listed items.

Field: example entries. Status: answers known.
Compound | IC50
N#Cc1ccc2c(c1)C(c1nc(NCc3ccncc3)nc3nn(C4CCCC4)cc13)C(=O)N2 (centres unmarked) | < 300 nM
CCCn1cc2c(C3C(=O)Nc4ccc(C)cc43)nc(NCCN(C)C)nc2n1 (centres unmarked) | 300 to 3000 nM
CCOCCn1cc2c(C3C(=O)Nc4ccc(Cl)cc43)nc(NCCCNC)nc2n1 (centres unmarked) | 300 to 3000 nM

Input: Quick check: IC50 of Cn1cc2c(C3C(=O)Nc4ccc(Br)cc43)nc(NCCc3cccnc3)nc2n1 (centres unmarked) ?
Output: < 300 nM

Input: Thanks! And COCCn1cc2c(C3C(=O)Nc4ccc(Br)cc43)nc(NCCN(C)C)nc2n1 (centres unmarked) ?
Output: 300 to 3000 nM

* * *

Assay endpoint: melting point

Field: example entries. Status: answers known.
Compound | melting point
COCCNc1nc(C2C(=O)Nc3ccc(Cl)cc32)c2cn(C3CCCC3)nc2n1 (stereo not shown) | 249 to 259 °C
O=C1Nc2ccc(F)c(F)c2C1c1ncnc2c1cnn2C1CCCC1 (stereo not shown) | > 300 °C
Cn1ncc2c(C3C(=O)Nc4ccc(Cl)cc43)ncnc21 (stereo not shown) | > 320 °C
O=C1Nc2ccc(F)cc2C1c1ncnc2c1cnn2C1CCCC1 (stereo not shown) | 254 to 257 °C
CCCn1cc2c(C3C(=O)Nc4ccc(Br)cc43)nc(NCc3cccnc3)nc2n1 (stereo not shown) | 277 to 281 °C

Input: Quick check: melting point of Cn1ncc2c(C3C(=O)Nc4ccc(Br)cc43)ncnc21 (stereo not shown) ?
Output: > 350 °C

Input: Thanks! And CC(C)Cn1cc2c(C3C(=O)Nc4ccc(Br)cc43)nc(Cl)nc2n1 (stereo not shown) ?
Output: 295 °C (dec.)

Input: Thanks! And CN(C)CCCNc1nc(C2C(=O)Nc3ccc(Cl)cc32)c2cn(C3CCCC3)nc2n1 (stereo not shown) ?
Output: 176 to 179 °C

Input: Thanks! And COCCn1cc2c(C3C(=O)Nc4ccc(Br)cc43)nc(NCCCN(C)C)nc2n1 (stereo not shown) ?
Output: 297 to 298 °C

Input: Thanks! And CCCn1cc2c(C3C(=O)Nc4ccc(Br)cc43)nc(NCCc3ccccn3)nc2n1 (stereo not shown) ?
Output: 283 to 291 °C

* * *

Structures can show the parent of a compound that is named as a salt.
Assay endpoint: melting point

Molecule | Measured value
C[C@H](O)CNc1nc(C2C(=O)Nc3ccc(Br)cc32)c2cn(C3CCCC3)nc2n1 (some centres unmarked) [Example 372] | > 300 °C
C[C@@H](O)CNc1nc(C2C(=O)Nc3ccc(Cl)cc32)c2cn(C3CCCC3)nc2n1 (some centres unmarked) [Example 375] | > 300 °C
O=C1Nc2ccc(Br)cc2C1c1ncnc2nn(C3CCCCC3)cc12 (centres unmarked) [Example 46] | 285 to 290 °C
O=C1Nc2c(F)cc(F)cc2C1c1ncnc2c1cnn2C1CCCC1 (centres unmarked) [Example 61] | > 300 °C
O=C1Nc2ccc(C(F)(F)F)cc2C1c1nc(NCc2ccncc2)nc2nn(C3CCCC3)cc12 (centres unmarked) [Example 246] | > 300 °C

Input: Quick check: melting point of O=C1Nc2ccc(C(F)(F)F)cc2C1c1nc(NCc2cccnc2)nc2nn(C3CCCC3)cc12 (centres unmarked) [Example 161] ?
Output: > 300 °C

Input: Thanks! And CNCCCNc1nc(C2C(=O)Nc3ccc(C(F)(F)F)cc32)c2cn(C3CCCC3)nc2n1 (centres unmarked) (as salt: hydrochloride) [Example 253] ?
Output: 260 to 262 °C

Input: Thanks! And CCCn1cc2c(C3C(=O)Nc4ccc(Br)cc43)nc(NCCN3CCOCC3)nc2n1 (centres unmarked) [Example 202] ?
Output: 299 to 303 °C

* * *

Structures can show the parent of a compound that is named as a salt.
Quick reference: melting point of the listed items.

Field: example entries. Status: answers known.
Compound | Assay endpoint | Measured value
CCCn1cc2c(C3C(=O)Nc4ccc(Br)cc43)nc(NCCc3cccnc3)nc2n1 (centres unmarked) | melting point | 294 to 297 °C
Cl.NCCNc1nc(C2C(=O)Nc3ccc(C(F)(F)F)cc32)c2cn(C3CCCC3)nc2n1 (centres unmarked) | melting point | 290 to 293 °C
N#Cc1ccc2c(c1)C(c1ncnc3[nH]ncc13)C(=O)N2 (centres unmarked) | melting point | > 300 °C (dec.)
O=C1Nc2ccc(Cl)cc2C1c1ncnc2nn(C3CCCCC3)cc12 (centres unmarked) | melting point | 294 to 298 °C
O=C1Nc2cc(F)ccc2C1c1ncnc2c1cnn2C1CCCC1 (centres unmarked) | melting point | 230 to 233 °C

Input: Quick check: melting point of N#Cc1ccc2c(c1)C(c1nc(OCCc3cccnc3)nc3nn(C4CCCC4)cc13)C(=O)N2 (centres unmarked) ?
Output: 302 to 304 °C

Input: Thanks! And O=C1Nc2ccc(Cl)cc2C1c1ncnc2c1cnn2C1CCCC1 (centres unmarked) ?
Output: 304 to 306 °C

Input: Thanks! And O=C1Nc2ccc(Br)cc2C1c1ncnc2c1cnn2C1CCCCC1 (centres unmarked) ?
Output: 305 to 308 °C

Input: Thanks! And COCCn1cc2c(C3C(=O)Nc4ccc(Br)cc43)nc(Cl)nc2n1 (centres unmarked) ?
Output: > 300 °C

Input: Thanks! And CCCn1cc2c(C3C(=O)Nc4ccc(Br)cc43)nc(NC[C@@H](C)O)nc2n1 (some centres unmarked) ?
Output: 310 °C (dec.)

Input: Thanks! And CNCCCNc1nc(C2C(=O)Nc3ccc(Br)cc32)c2cn(CCOC)nc2n1 (centres unmarked) (as salt: hydrochloride) ?
Output: 232 to 236 °C

* * *

Quick reference: IC50 of the listed items.
Target entity: His6-GSK-3β (Homo sapiens, UniProt P49841)
Construct: made in house; host or cells: Sf21 insect cells (baculovirus)
Sequence (P49841 2-419): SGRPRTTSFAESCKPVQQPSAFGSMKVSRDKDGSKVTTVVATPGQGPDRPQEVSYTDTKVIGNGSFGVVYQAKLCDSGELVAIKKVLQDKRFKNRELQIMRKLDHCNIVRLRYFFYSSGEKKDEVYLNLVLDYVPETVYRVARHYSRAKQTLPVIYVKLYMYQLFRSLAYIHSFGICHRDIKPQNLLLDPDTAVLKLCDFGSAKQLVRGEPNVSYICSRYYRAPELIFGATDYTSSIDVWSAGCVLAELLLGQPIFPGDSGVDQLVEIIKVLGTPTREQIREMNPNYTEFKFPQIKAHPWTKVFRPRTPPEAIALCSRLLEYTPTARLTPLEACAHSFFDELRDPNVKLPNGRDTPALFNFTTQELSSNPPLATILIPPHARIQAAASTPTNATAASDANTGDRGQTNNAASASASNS
Method: Inhibition of His6-GSK-3β kinase activity (ELISA-based format, time-resolved fluorescence readout)
Type: biochemical
Assay context: class symbols; read-out: GSK3β IC50

Field: example entries. Status: answers known.
Molecule | Target entity | IC50
N#Cc1cccc2c1NC(=O)C2c1ncnc2nn(C3CCCC3)cc12 (centres unmarked) | His6-GSK-3β (Homo sapiens, UniProt P49841) | 300 to 3000 nM
N#Cc1ccc2c(c1)C(c1nc(NCCc3ccccn3)nc3c1CCC3)C(=O)N2 (centres unmarked) | His6-GSK-3β (Homo sapiens, UniProt P49841) | 300 to 3000 nM
CC(C)n1cc2c(C3C(=O)Nc4ccc(C#N)cc43)ncnc2n1 (centres unmarked) | His6-GSK-3β (Homo sapiens, UniProt P49841) | 300 to 3000 nM
COCCn1cc2c(C3C(=O)Nc4ccc(Br)cc43)nc(NCCCN(C)C)nc2n1 (centres unmarked) | His6-GSK-3β (Homo sapiens, UniProt P49841) | < 300 nM
CN1CCN(c2ccc(Nc3nc(C4C(=O)Nc5ccc(C#N)cc54)c4cn(C5CCCC5)nc4n3)cn2)CC1 (centres unmarked) | His6-GSK-3β (Homo sapiens, UniProt P49841) | < 300 nM
O=C1Nc2ccc(F)cc2C1c1ncnc2c1cnn2C1CCCCC1 (centres unmarked) | His6-GSK-3β (Homo sapiens, UniProt P49841) | > 10000 nM
N#Cc1ccc2c(c1)C(c1nc(NCCc3ccccn3)nc3nn(C4CCCC4)cc13)C(=O)N2 (centres unmarked) | His6-GSK-3β (Homo sapiens, UniProt P49841) | < 300 nM
CCCn1cc2c(C3C(=O)Nc4ccc(Br)cc43)nc(NC[C@@H]3CCCN3)nc2n1 (some centres unmarked) | His6-GSK-3β (Homo sapiens, UniProt P49841) | < 300 nM

Input: Quick check: IC50 of N#Cc1ccc2c(c1)C(c1nc(NCCCN3CCCCC3)nc3nn(C4CCCC4)cc13)C(=O)N2 (centres unmarked) ?
Output: < 300 nM

Input: Thanks! And CC(C)Cn1cc2c(C3C(=O)Nc4ccc(Br)cc43)nc(NCCN(C)C)nc2n1 (centres unmarked) ?
Output: < 300 nM

Input: Thanks! And CCCn1cc2c(C3C(=O)Nc4ccc(Br)cc43)nc(NCCCN3CCOCC3)nc2n1 (centres unmarked) ?
Output: < 300 nM

Input: Thanks! And N#Cc1ccc2c(c1)C(c1ncnc3c1cnn3C1CCCCC1)C(=O)N2 (centres unmarked) ?
Output: > 10000 nM

Input: Thanks! And CCCOCCNc1nc2c(c(C3C(=O)Nc4ccc(Br)cc43)n1)CCC2 (centres unmarked) ?
Output: > 10000 nM

Input: Thanks! And COCCn1cc2c(C3C(=O)Nc4ccc(Br)cc43)nc(NC[C@@H](C)O)nc2n1 (some centres unmarked) ?
Output: < 300 nM
